# Tested on: TOV-112D (Ovarian Carcinoma)
# Experimental protocol: combination Emax (second highest fraction inhibited in the dose matrix, 72 h); higher = more inhibition; extreme values may be limits of the assay
Property label: combination Emax

These recorded examples may help you get a feel for the data.
Compound	Property label	Result
CC1(C)CCC(CN2CCN(c3ccc(C(=O)NS(=O)(=O)c4ccc(NCC5CCOCC5)c([N+](=O)[O-])c4)c(Oc4cnc5[nH]ccc5c4)c3)CC2)=C(c2ccc(Cl)cc2)C1 [Venetoclax] + C[C@@H](Nc1cc(F)cc(F)c1)c1cc(C(=O)N(C)C)cc2c(=O)cc(N3CCOCC3)oc12 [AZD8186] (first compound max 1 µM, 7x7, partner max 3 µM)	combination Emax	0.102
CS(=O)(=O)CCNCc1ccc(-c2ccc3ncnc(Nc4ccc(OCc5cccc(F)c5)c(Cl)c4)c3c2)o1 [Lapatinib] + C[C@@H](Oc1cc(-c2cnn(C3CCNCC3)c2)cnc1N)c1c(Cl)ccc(F)c1Cl [Crizotinib] (first compound max 10 µM, 7x7, partner max 10 µM)	combination Emax	0.791
CN(CCO)CC[C@H](CSc1ccccc1)Nc1ccc(S(=O)(=O)NC(=O)c2ccc(N3CCC([C@@H](O)c4ccccc4-c4ccc(Cl)cc4)CC3)cc2)cc1S(=O)(=O)C(F)(F)F [AZD4320] + CCN(CCO)CCCOc1ccc2c(Nc3cc(CC(=O)Nc4cccc(F)c4)[nH]n3)ncnc2c1 [AZD2811] (first compound max 1 µM, 7x7, partner max 1 µM)	combination Emax	0.485

Record CC(=O)Nc1cccc(-n2c(=O)n(C3CC3)c(=O)c3c(Nc4ccc(I)cc4F)n(C)c(=O)c(C)c32)c1 [Trametinib] + Cc1nc(-c2cn3c(n2)-c2ccc(-c4cnn(C(C)(C)C(N)=O)c4)cc2OCC3)n(C(C)C)n1 [Taselisib] (first compound max 1 µM, 7x7, partner max 10 µM) . Reported combination Emax: 0.641

Record Cc1cc2ncnn2cc1Nc1ncc2c(n1)n(C1CCOCC1)c(=O)n2C [AZD7648] + O=C(c1cc(Cc2n[nH]c(=O)c3ccccc23)ccc1F)N1CCN(C(=O)C2CC2)CC1 [Olaparib] (first compound max 10 µM, 7x7, partner max 10 µM) . Reported combination Emax: 0.353

Record CC1(C)CCC(CN2CCN(c3ccc(C(=O)NS(=O)(=O)c4ccc(NCC5CCOCC5)c([N+](=O)[O-])c4)c(Oc4cnc5[nH]ccc5c4)c3)CC2)=C(c2ccc(Cl)cc2)C1 [Venetoclax] + C[C@@H]1COCCN1C2=NC(=NC(=C2)C3(CC3)[S@](=N)(=O)C)C4=C5C=CNC5=NC=C4 [AZD6738] (first compound max 1 µM, 7x7, partner max 10 µM) . Reported combination Emax: 0.656

Record Cc1cc2ncnn2cc1Nc1ncc2c(n1)n(C1CCOCC1)c(=O)n2C [AZD7648] + CCN(CCO)CCCOc1ccc2c(Nc3cc(CC(=O)Nc4cccc(F)c4)[nH]n3)ncnc2c1 [AZD2811] (first compound max 10 µM, 7x7, partner max 1 µM) . Reported combination Emax: 0.458

----------
# Test system: SW837 (Colorectal Carcinoma)
# Experimental protocol: combination Emax (second highest fraction inhibited in the dose matrix, 72 h); higher = more inhibition; extreme values may be limits of the assay
Below is a list of entries, each paired with its recorded combination Emax value.
Hey, just send me the number, nothing else.

Molecule	Property label	Readout number
O=C(c1cc(Cc2n[nH]c(=O)c3ccccc23)ccc1F)N1CCN(C(=O)C2CC2)CC1 [Olaparib] + Cc1c2c(nn1C)CSCc1cc(n(C)n1)CSc1cc(c3ccccc3c1)OCCCc1c(C(=O)O)n(C)c3c-2c(Cl)ccc13 [AZD5991] (first compound max 10 µM, 7x7, partner max 1 µM)	combination Emax	0.136

Record Cc1cc2ncnn2cc1Nc1ncc2c(n1)n(C1CCOCC1)c(=O)n2C [AZD7648] + CN(C)CCCOc1ccc(-c2ccc3ncc4c(c3c2)n(C2CCOCC2)c(=O)n4C)cn1 [AZD0156] (first compound max 10 µM, 7x7, partner max 1 µM) . Reported combination Emax: 0.154
